Molecular target: Transient receptor potential cation channel subfamily A member 1 (Rattus norvegicus)
Sequence (Q6RI86 whole entry): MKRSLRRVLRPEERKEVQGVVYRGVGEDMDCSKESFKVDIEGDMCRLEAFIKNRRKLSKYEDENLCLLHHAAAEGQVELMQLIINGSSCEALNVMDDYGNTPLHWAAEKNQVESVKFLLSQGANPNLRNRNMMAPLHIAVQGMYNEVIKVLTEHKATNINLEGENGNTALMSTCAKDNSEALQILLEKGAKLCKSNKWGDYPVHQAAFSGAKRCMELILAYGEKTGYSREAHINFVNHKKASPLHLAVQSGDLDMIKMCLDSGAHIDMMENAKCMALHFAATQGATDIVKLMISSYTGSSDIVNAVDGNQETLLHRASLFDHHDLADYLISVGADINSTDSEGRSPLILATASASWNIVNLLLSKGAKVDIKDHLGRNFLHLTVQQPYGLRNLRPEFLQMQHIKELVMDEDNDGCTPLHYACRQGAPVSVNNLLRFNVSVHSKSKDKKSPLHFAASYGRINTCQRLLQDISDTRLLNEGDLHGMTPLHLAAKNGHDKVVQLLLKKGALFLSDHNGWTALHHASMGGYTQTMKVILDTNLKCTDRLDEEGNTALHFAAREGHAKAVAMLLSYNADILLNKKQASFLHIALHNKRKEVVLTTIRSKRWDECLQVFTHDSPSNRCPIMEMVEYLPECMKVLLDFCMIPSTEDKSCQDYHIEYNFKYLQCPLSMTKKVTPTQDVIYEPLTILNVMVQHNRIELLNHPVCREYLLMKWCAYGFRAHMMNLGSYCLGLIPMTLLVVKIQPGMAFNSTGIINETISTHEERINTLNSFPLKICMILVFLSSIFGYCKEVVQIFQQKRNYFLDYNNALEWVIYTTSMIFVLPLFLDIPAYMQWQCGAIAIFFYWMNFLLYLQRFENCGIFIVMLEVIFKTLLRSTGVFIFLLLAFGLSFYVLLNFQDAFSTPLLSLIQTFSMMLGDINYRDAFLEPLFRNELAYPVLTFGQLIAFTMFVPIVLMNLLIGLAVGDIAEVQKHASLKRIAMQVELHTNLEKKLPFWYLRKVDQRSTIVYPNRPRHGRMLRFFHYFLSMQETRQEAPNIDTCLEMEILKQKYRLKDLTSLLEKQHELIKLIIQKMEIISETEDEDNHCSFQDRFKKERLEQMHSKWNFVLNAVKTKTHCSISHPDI
Assay: Agonist activity at rat TRPA1 channel expressed in tetracycline induced HEK293 cells assessed as increase in intracellular calcium
Assay type: functional, cell-based
assay.readout: pEC50
For clarity, pEC50 is expressed as the negative log10 of concentration in mol/L.

Measured pEC50 of CCCCCC(O)/C=C/C=O (stereo unspecified) [4-HYDROXYNON-2-ENAL] : 4.57

* * *

Biological target: Transient receptor potential cation channel subfamily A member 1 (Rattus norvegicus)
Experiment: Activation of TRPA1 channel in rat dorsal root ganglion neurons assessed as increase in intracellular calcium level
Format: tissue-based
assay.readout: EC50 (µM)
State the answer as a number, implicitly in µM.

Per the reported Transient receptor potential cation channel subfamily A member 1 (Rattus norvegicus) data, CCCCCC(O)/C=C/C=O (stereo unspecified) [4-HYDROXYNON-2-ENAL] has EC50 of 77

Reference source for all entries: ChEMBL document CHEMBL1156498
